EXPERIMENTAL TARGET: Beta-2 adrenergic receptor (Homo sapiens) (UniProt P07550)
Sequence (P07550 whole entry, looked up): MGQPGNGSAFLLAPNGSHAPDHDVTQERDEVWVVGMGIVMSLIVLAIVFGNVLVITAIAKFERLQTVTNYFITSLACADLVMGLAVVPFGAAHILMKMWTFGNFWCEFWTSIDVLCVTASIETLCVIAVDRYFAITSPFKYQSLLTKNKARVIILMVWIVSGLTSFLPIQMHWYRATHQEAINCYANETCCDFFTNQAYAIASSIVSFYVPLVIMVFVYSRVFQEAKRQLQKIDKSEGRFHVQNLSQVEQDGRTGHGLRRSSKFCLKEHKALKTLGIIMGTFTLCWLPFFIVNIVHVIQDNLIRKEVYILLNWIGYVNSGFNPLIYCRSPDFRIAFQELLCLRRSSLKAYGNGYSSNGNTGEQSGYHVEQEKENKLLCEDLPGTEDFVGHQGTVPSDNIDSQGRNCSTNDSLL
ASSAY OVERVIEW: agonist-induced loss of surface beta2AR – cell-based, FAP fluorogen, flow cytometry, validation set, pilot screen (AID 504459);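 note: agonist-driven loss of surface beta2AR via internalization measured by FAP dye flow cytometry; reference of the scale not given here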
MEASUREMENT PARAMETERS: Am2.2-beta2AR cells, at 10 µM, stronger effect = higher value
EXPERIMENTAL READOUT: response (%)
Respond with the bare value in %.

Q: Give its response value. Item: CCN(CC)CCOC(=O)C(c1ccccc1)c1ccccc1
Ans: 2.02

Q: Give its response value. Item: CCc1ccc(/C=C2\Oc3cc(OC(=O)N4CCOCC4)ccc3C2=O)cc1
Ans: -17.4

Q: Give its response value. Item: CC(=O)OCC(=O)[C@@]1(O)[C@H](C)C[C@H]2[C@@H]3CCC4=CC(=O)C=C[C@]4(C)[C@@]3(F)[C@@H](O)C[C@@]21C
Ans: -2.19

Q: Give its response value. Item: COCCCN1C(=O)/C(=C\c2cccs2)C(C(=O)OC)=C1C
Ans: -6.32

Q: Give its response value. Item: CN(C)CC/C=C1\c2ccccc2Sc2ccc(Cl)cc21
Ans: 19.9

Q: Give its response value. Item: O=C(CCC(=O)NCCO)NCCO
Ans: -19.9

Q: Give its response value. Item: Cc1ccccc1C(=O)Nc1ccccc1C(=O)NCC(C)C
Ans: -22.2

Q: Give its response value. Item: CCC(C)NCCOc1ccccc1C (configuration not stated)
Ans: -6.41

Q: Give its response value. Item: O=C(/C=C/c1c[nH]c2ccccc12)c1cccc2ccccc12
Ans: 63.6

Q: Give its response value. Item: COc1ccccc1Oc1c(C)oc2c(CN3CCN(CCO)CC3)c(O)ccc2c1=O
Ans: 6.51

Q: Give its response value. Item: C#C[C@]1(O)CC[C@H]2[C@@H]3CCc4cc(OC5CCCC5)ccc4[C@H]3CC[C@@]21C
Ans: -9.24

Q: Give its response value. Item: COc1cc2c(cc1OC)CN(C(=O)c1ccc(S(=O)(=O)N(C)c3ccccc3)cc1)CC2
Ans: -14.1

Q: Give its response value. Item: COc1c2c(nc3occc13)C(CC=C(C)C)(OC)C(O)CC2 (configuration not stated)
Ans: 3.58

Q: Give its response value. Item: CCOC(=O)C(=Cc1ccccc1OC)C(=O)OCC
Ans: -11.8

Q: Give its response value. Item: O=C(O)C1CSC(c2ccc3c(c2)OCO3)N1 (configuration not stated)
Ans: -4.07

Q: Give its response value. Item: COc1cc(C(=O)Nc2ccc(N(C)C)cc2)c([N+](=O)[O-])cc1OC
Ans: -1.8

Q: Give its response value. Item: COC1CCN(C(=O)c2ccc(OC3CCN(Cc4ccccn4)CC3)cc2)CC1
Ans: -2.71

Q: Give its response value. Item: N/C(=N\OC(=O)CCCOc1ccc(Cl)cc1Cl)c1ccccn1
Ans: 2.49

Q: Give its response value. Item: Cc1ccc2occ(C(=O)c3ccco3)c(=O)c2c1
Ans: -3.74

Q: Give its response value. Item: C[N+]1(C2CCC3CCCC2C3O)CCCCC1 (configuration not stated)
Ans: -9.71

Q: Give its response value. Item: O=c1oc2c(CN3CCCCC3)c(O)ccc2c2c1CCCCC2
Ans: -8.88

Q: Give its response value. Item: Cn1c(=O)c2[nH]cnc2n(C)c1=O
Ans: -0.49

Q: Give its response value. Item: O=C1C(O)CC2c3ccccc3CC3(CCCC3)N12 (configuration not stated)
Ans: 48

Q: Give its response value. Item: CN(C)[C@@H]1C(=O)C(C(N)=O)=C(O)[C@@]2(O)C(=O)C3=C(O)c4c(O)ccc(Cl)c4[C@@H](O)[C@H]3C[C@@H]12
Ans: -15.7

Q: Give its response value. Item: COCc1cc(=O)[nH]c(/N=C(\N)Nc2ccc(Oc3ccccc3)cc2)n1
Ans: 17.9

Q: Give its response value. Item: c1ccc(Nc2cccc3c(Nc4ccccc4)cccc23)cc1
Ans: 6.03

Q: Give its response value. Item: Cc1cnc(N)c2c(=O)oc3ccccc3c12
Ans: -6.01

Q: Give its response value. Item: O=C(Oc1ccccc1)Oc1ccc2c(c1)oc(=O)c1ccccc12
Ans: 4.41

Q: Give its response value. Item: COC(=O)c1[nH]c2ccc(C)cc2c1NC(=O)CN1CCc2cc(OC)c(OC)cc2C1
Ans: 10.4

Q: Give its response value. Item: COc1ccc2[nH]c(=O)c(CNC3CCCCC3)cc2c1
Ans: -1.53

Q: Give its response value. Item: COc1ccc(C(=O)CC2OC(=O)c3c2ccc(OC)c3OC)cc1 (configuration not stated)
Ans: -6.79

Q: Give its response value. Item: Cc1[nH]nc(-c2ccc(O)cc2O)c1Oc1ccccc1
Ans: -4.61

Q: Give its response value. Item: COc1cccc(CC(=O)NCC2COc3ccccc3O2)c1OC (configuration not stated)
Ans: 3.04

Q: Give its response value. Item: O=C1CCCN1C(=O)CCC(=O)N1CCCC1=O
Ans: -7.65

Q: Give its response value. Item: CCn1nc(C(=O)O)c(=O)c2cc3c(cc21)OCO3
Ans: -7.41

Q: Give its response value. Item: O=C(CN1C(=O)/C(=C/c2cccc(Br)c2)SC1=S)Nc1cccnc1
Ans: -8.62

Q: Give its response value. Item: CC[N+](C)(C)c1cccc(O)c1
Ans: -3.94

Taken from PubChem BioAssay.
